Catalogue of Score values
Test system: UT5600 cells (NTR−) lysogens
TEST: Replica-plate screening of mutant NTR-expressing lysogens on increasing CB1954 (growth score)
Assay type: cell-based, E. coli
Set-up: key: 0: Good growth on all concentrations of CB 1954 = vector; Good growth on 100 and 200, faint on 300, ring of growth on 400 μM; Good growth on 100 and 200, ring growth on 300, none or very faint on 400 μM; Good growth on 100, faint to good on 200, none or very faint on 300 and 400 μM; 4: Good growth on 100 μM, none to ring growth on 200 μM = wild type; Good growth on 50 μM, ring on 100 μM, none on 200, 300 or 400 μM; 6: Faint growth on 50 μM, ring on 100 μM; 7: Good growth on 50 μM, none on 100 μM; 8: Ring growth on 50 μM, none on 100 μM; 9: None or very faint growth on 50 μM, none on 100 μM; 10: None or ring growth on 35 μM
EXPERIMENTAL_PARAMETERS: growth of lysogens on agar with kanamycin, IPTG and 0-400 μM CB1954; wild type = 4, higher = more sensitive

MOLECULE	Score
Y68C (protein) MDIISVALKRHSTKAFDASKKLTPEQAEQIKTLLQYSPSSTNSQPWHFIVASTEEGKARVAKSAAGNCVFNERKMLDASHVVVFCAKTAMDDVWLKLVVDQEDADGRFATPEAKAANDKGRKFFADMHRKDLHDDAEWMAKQVYLNVGNFLLGVAALGLDAVPIEGFDAAILDAEFGLKEKGYTSLVVVPVGHHSVEDFNATLPKSRLPQNITLTEV	5
F124G (protein) MDIISVALKRHSTKAFDASKKLTPEQAEQIKTLLQYSPSSTNSQPWHFIVASTEEGKARVAKSAAGNYVFNERKMLDASHVVVFCAKTAMDDVWLKLVVDQEDADGRFATPEAKAANDKGRKFGADMHRKDLHDDAEWMAKQVYLNVGNFLLGVAALGLDAVPIEGFDAAILDAEFGLKEKGYTSLVVVPVGHHSVEDFNATLPKSRLPQNITLTEV	7
